Tested on: Bacteria
Assay: Inhibition of Alpha-amylase
Design: concentration or dose not given beside the values
Conditions: concentration not given here
If the reported inhibition equals or exceeds 90%, assign y. If not, assign n.

Recorded results for 4 molecules are shown here.
>  <molecule>
O=C1O[C@H]([C@@H](O)CO)C(O)=C1O (stereo in doubt; 1b)

>  <label>
y

$$$$
>  <molecule>
CC1(C)OCC(C2OC(=O)C(O)=C2O)O1 (stereo in doubt; 2b)

>  <label>
y

$$$$
>  <molecule>
COC1=C(O)C(=O)OC1C1COC(C)(C)O1 (stereo unspecified)

>  <label>
n

$$$$
>  <molecule>
CCCCCCCCCCCCCCCC(=O)OC[C@H](O)[C@H]1OC(=O)C(O)=C1O

>  <label>
n

$$$$

# next molecule below
Q: Dear colleague, could you confirm whether CC1(C)OCC(C2OC(=O)C(O)=C2O)O1 (stereo in doubt; 2a) has inhibition at or above 90%?
Result: y

###

System: Alpha-amylase (Hordeum vulgare)
Test: Inhibition of malt alpha-amylase
Set-up: concentration or dose not given beside the values
Conditions: concentration not given here
The following compounds are listed with their measured inhibition values.
Kindly answer with a numeric value in %, unit omitted.

>  <compound>
COC1=C(OC)C(C(O)COC(C)=O)OC1=O (stereo unspecified)

>  <tested system>
Alpha-amylase (Hordeum vulgare)

>  <inhibition (%)>
3

$$$$
>  <compound>
CC1(C)OCC(C2OC(=O)C(O)=C2O)O1 (stereo in doubt; 2a)

>  <tested system>
Alpha-amylase (Hordeum vulgare)

>  <inhibition (%)>
90

$$$$

Q: Report inhibition for CCCC(=O)OCC(O)C1OC(=O)C(OC)=C1OC (stereo unspecified)
Result: 10

Q: Give reported inhibition value for CC(=O)OCC(OC(C)=O)C1OC(O)=C(O)C1=O (stereo unspecified)
Result: 89

Q: Kindly indicate its recorded inhibition. Item: CCC(=O)OCC(O)C1OC(=O)C(OC)=C1OC (stereo unspecified)
Result: 7

Q: Provide only the value of recorded inhibition for COC1=C(OC(C)=O)C(C2COC(C)(C)O2)OC1=O (stereo unspecified)
Result: 9

###

The entries below come with measured inhibition values attached.
Target: Alpha-amylase 1A (Homo sapiens)
Assay: Inhibition of salivary alpha-amylase
Details: concentration not given here
Unit % implied. Number only.

>  <compound>
CCCCCCCCCCCCCCCC(=O)OC[C@H](O)[C@H]1OC(=O)C(O)=C1O

>  <reported endpoint>
inhibition

>  <value measured>
69

$$$$

Q: Input CC1(C)OCC(C2OC(=O)C(O)=C2O)O1 (stereo in doubt; 2b) , output reported inhibition.
Result: 98

Q: Respond only with inhibition recorded for O=C1O[C@H]([C@@H](O)CO)C(O)=C1O (stereo in doubt; 1b)
Result: 100

Q: # return recorded inhibition for input CC1(C)OCC(C2OC(=O)C(O)=C2O)O1 (stereo in doubt; 2a)
Result: 88

###

Tested on: Alpha-amylase (Hordeum vulgare)
Test: Inhibition of malt alpha-amylase
Parameters: concentration or dose not given beside the values
Conditions: concentration not given here
Threshold check on inhibition: at or above 4% gives class 1, strictly below gives class 0.

Answered cases to consult:
>  <compound>
CC1(C)OCC(C2OC(=O)C(O)=C2O)O1 (stereo in doubt; 2b)

>  <label>
class 1

$$$$
>  <compound>
COC1=C(OC)C(C2COC(C)(C)O2)OC1=O (stereo unspecified)

>  <label>
class 0

$$$$
>  <compound>
COC1=C(OC)C(C(COC(C)=O)OC(C)=O)OC1=O (stereo unspecified)

>  <label>
class 0

$$$$
>  <compound>
COC1=C(O)C(=O)OC1C1COC(C)(C)O1 (stereo unspecified)

>  <label>
class 1

$$$$

Consider the additional compound presented here.
Q: Reported inhibition at or above 4%? COC1=C(O)C(=O)OC1C(O)CO (stereo unspecified)
Result: class 1

###

# inhibition values compiled below
Target: Pancreatic alpha-amylase (Homo sapiens) (UniProt P04746)
Sequence (P04746 whole entry): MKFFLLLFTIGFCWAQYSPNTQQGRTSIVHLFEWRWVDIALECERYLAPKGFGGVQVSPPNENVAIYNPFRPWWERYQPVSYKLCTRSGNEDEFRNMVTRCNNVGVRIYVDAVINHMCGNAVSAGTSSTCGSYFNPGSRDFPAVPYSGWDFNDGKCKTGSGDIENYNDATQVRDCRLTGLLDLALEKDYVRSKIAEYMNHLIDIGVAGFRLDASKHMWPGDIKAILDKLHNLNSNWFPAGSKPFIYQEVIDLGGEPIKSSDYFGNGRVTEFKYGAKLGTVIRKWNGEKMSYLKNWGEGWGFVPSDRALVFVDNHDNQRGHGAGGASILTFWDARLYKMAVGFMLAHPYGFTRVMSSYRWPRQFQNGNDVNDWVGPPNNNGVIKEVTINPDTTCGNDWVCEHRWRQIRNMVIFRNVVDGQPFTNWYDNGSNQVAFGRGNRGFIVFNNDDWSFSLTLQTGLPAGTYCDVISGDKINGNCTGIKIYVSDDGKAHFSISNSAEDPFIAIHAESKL
Experiment: Inhibition of pancreatic alpha-amylase
Set-up: concentration or dose not given beside the values
Conditions: concentration not given here
Report the figure in % without appending any unit label.

Consider the worked cases shown below.
>  <compound>
O=C1O[C@H]([C@@H](O)CO)C(O)=C1O (stereo in doubt; 1b)

>  <units text>
%

>  <inhibition>
100

$$$$
>  <compound>
CC1(C)OCC(C2OC(=O)C(O)=C2O)O1 (stereo in doubt; 2a)

>  <units text>
%

>  <inhibition>
99

$$$$
>  <compound>
CC1(C)OCC(C2OC(=O)C(O)=C2O)O1 (stereo in doubt; 2b)

>  <units text>
%

>  <inhibition>
99

$$$$
>  <compound>
CC(=O)OCC(OC(C)=O)C1OC(O)=C(O)C1=O (stereo unspecified)

>  <units text>
%

>  <inhibition>
99

$$$$
>  <compound>
COC1=C(O)C(=O)OC1C1COC(C)(C)O1 (stereo unspecified)

>  <units text>
%

>  <inhibition>
0

$$$$

Q: Provide one value: measured inhibition of CCCCCCCCCCCCCCCC(=O)OC[C@H](O)[C@H]1OC(=O)C(O)=C1O
Result: 88

###

System: Fungi
Experiment: Inhibition of fungal alpha-amylase
Parameters: concentration or dose not given beside the values
Settings: concentration not given here
Assign class by inhibition: not lower than 90% means rule met; lower than 90% means rule not met.

For orientation, consider the following solved cases.
>  <compound>
CCCCCCCCCCCCCCCC(=O)OC[C@H](O)[C@H]1OC(=O)C(O)=C1O

>  <tested system>
Fungi

>  <label>
rule not met

$$$$
>  <compound>
CC1(C)OCC(C2OC(=O)C(O)=C2O)O1 (stereo in doubt; 2a)

>  <tested system>
Fungi

>  <label>
rule met

$$$$
>  <compound>
COC1=C(O)C(=O)OC1C1COC(C)(C)O1 (stereo unspecified)

>  <tested system>
Fungi

>  <label>
rule not met

$$$$

As a next step, examine the compound that follows.
Q: Check if inhibition >= 90% (inclusive). Item: O=C1O[C@H]([C@@H](O)CO)C(O)=C1O (stereo in doubt; 1b)
Result: rule met
